biological target: T1, scHLA-B27-mmH (engineered HLA-B*27 ectodomain in-line fusion protein) (human (HLA-B*2705, beta-2 …)); experiment: SPR (Biacore), mAb captured, 25 C, HBST pH 7.4
T1 construct: also called soluble HLA-B*27 fusion protein
property-label: log10 of Kd (log10 of the value in nM)

>>> endpoint_result("H4H2528P (antibody, V domains shown) VH: QVQLVESGGGVVQPGRSLRLSCAASGFTFSRFGMDWVRQAPGKGLEWVAVISYDGKNKLYADSVKGRFTISRDNSKNTLYLQMNSLRAEDTAVYYCAKEGDNWNFVGDSWGQGTLVTVSS VL: DIQMTQSPSSVSASVGDRVTITCRASQGISARLAWYQQKPGKAPKLLIYAASSLQSGVPSRFSGSGSGTYFTLTISNLQPEDFATYYCQQANSFPYTLGQGTKLEIK")
0.78
>>> endpoint_result("H4H2718N (antibody, V domains shown) VH: EVQLVESGGGLVQPGRSLRLSCAASGFTFDEYAMHWVRQVPGKGLEWVSGISRNSGTIGYVDSVLGRFTISRDNAKNSLYLQMNSLRPEDTALYYCAKDKGWLLGMDVWGQGTTVTVSS VL: DIQMTQSPSSLSASVGDRVTITCRASQAIRNDLGWYQQKPGKAPKRLIYAASSLQSGVPSRFSGSGSGTEFALTISSLQPEDFATYYCLQYNSYLYTFGQGTKLEIK")
1.65
>>> endpoint_result("H4H2477N2 (antibody, V domains shown) VH: QVQLQQWGAGLLKPSETLSLTCAVYGGSFSDYYWSWIRQPPGKGLEWIGEINHRGNTNYNPSLKSRVTISVDTSKNQFSLKLRSVTAADMAVYYCARIQLWLRGYDYYGMDVWGQGTTVTVSS VL: DIQMTQSPSSLSASVGDRVTITCRASQGIRNDLGWYQQKPGKAPKRLIYAASSLQGGVPSRFSGSGSGTEFSLTISSLQPEDFASYYCLQHNTYPWTFGQGTKVEIK")
1.23
>>> endpoint_result("H4H2530S (antibody, V domains shown) VH: EVQLVESGPGLVKPSQTLSLTCTVSGGSINSGGSYWSWIRQHPGKGLEWIGYIYSSGNTYYKPSLKSRVTISLDTSKNQFSLKMSSVTAADTAIYYCARDPRGITGTHYFDYWGQGTTVTVSS VL: EIVLTQSPGTLSLSPGERATLSCRTSQSISNKYLAWYQQKPGQAPRLLIYGASTRATGIPDRFSGSGSGTDFTLTISRLEPEDFAVYYCQQFGTSLFTFGPGTKVEIK")
0.09
>>> endpoint_result("H4H2559P (antibody, V domains shown) VH: QVQLVQSGAEVKKPGASVKVSCKASGYTFTDYFLHWVRQAPGQGLEWVGWINPNSGGTNFAQKFQGRVTMTRDTSISTAYMDLSRLRSDDTAVYYCARKAGYTSSWFDYWGQGTLVTVSS VL: DIVMTQSPDSLAVSLGERATINCKSSQSILYSFNNKNYLAWYQQKIGQPPMLLIYWASTRESGVPDRFSGSGSGTDFTLTISRLQAEDVAVYYCQQYYSSITFGQGTRLEIK")
-0.05

Data credit: patent US20130259876A1
